experimentalSystem: ATP-binding cassette sub-family C member 3 (Homo sapiens, UniProt O15438)
Sequence (O15438 whole entry): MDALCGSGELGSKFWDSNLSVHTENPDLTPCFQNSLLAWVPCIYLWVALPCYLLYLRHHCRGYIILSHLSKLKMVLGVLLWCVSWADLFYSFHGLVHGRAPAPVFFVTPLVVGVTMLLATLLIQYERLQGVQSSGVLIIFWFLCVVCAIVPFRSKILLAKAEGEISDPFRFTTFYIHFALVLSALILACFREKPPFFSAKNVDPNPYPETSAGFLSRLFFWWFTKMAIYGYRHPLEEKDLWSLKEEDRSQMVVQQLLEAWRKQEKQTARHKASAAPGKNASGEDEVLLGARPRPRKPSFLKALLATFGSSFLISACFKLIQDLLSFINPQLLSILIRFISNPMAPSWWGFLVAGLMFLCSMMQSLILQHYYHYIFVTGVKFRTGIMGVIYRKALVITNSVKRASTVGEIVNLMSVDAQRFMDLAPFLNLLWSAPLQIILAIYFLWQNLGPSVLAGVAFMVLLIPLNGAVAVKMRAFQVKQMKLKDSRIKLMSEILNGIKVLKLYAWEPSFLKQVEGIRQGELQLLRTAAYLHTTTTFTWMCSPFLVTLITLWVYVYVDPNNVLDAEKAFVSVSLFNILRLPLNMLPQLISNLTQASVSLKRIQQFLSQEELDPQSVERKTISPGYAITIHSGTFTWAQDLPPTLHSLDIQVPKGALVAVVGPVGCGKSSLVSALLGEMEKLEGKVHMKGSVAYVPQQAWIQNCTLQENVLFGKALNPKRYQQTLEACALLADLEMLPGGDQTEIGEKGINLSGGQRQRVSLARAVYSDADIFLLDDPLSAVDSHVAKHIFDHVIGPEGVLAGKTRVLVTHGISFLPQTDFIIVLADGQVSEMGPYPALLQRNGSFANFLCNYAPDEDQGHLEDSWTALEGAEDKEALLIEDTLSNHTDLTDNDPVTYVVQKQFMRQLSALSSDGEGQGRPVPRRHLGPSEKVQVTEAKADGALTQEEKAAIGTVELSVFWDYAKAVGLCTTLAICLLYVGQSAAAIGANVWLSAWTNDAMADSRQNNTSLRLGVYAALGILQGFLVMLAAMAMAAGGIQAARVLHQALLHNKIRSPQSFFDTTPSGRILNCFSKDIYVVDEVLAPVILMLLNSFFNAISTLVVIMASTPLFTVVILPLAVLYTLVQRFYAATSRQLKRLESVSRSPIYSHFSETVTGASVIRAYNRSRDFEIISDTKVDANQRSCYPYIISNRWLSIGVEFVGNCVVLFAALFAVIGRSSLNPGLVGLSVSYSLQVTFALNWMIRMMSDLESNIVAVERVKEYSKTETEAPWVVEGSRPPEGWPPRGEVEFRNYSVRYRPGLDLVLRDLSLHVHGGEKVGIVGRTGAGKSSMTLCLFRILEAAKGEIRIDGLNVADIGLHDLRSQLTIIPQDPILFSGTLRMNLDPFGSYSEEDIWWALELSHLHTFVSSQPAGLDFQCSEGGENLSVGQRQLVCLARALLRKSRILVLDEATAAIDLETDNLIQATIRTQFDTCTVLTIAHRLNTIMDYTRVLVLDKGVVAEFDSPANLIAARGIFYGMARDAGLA
procedureSummary: Inhibition of human MRP3 expressed in MDCK2 cells assessed as increase in intracellular CMF fluorescence at 10 uM by CMFDA assay
Assay type: cell-based
conditionSummary: mdck-ii
measuredEndpoint: Activity

# molecule, experimentalSystem, Activity
records = [
    ("Cc1ccnc2c1NC(=O)c1cccnc1N2C1CC1 [NEVIRAPINE]", "ATP-binding cassette sub-family C member 3 (Homo sapiens, UniProt O15438)", "Active"),
    ("Nc1nc(=O)n([C@@H]2CS[C@H](CO)O2)cc1F [EMTRICITABINE]", "ATP-binding cassette sub-family C member 3 (Homo sapiens, UniProt O15438)", "Active"),
    ("Nc1ccn([C@@H]2CS[C@H](CO)O2)c(=O)n1 [LAMIVUDINE]", "ATP-binding cassette sub-family C member 3 (Homo sapiens, UniProt O15438)", "Active"),
    ("O=C1Nc2ccc(Cl)cc2[C@@](C#CC2CC2)(C(F)(F)F)O1 [EFAVIRENZ]", "ATP-binding cassette sub-family C member 3 (Homo sapiens, UniProt O15438)", "Active"),
]

Query: Quick check: Activity of Nc1nc(NC2CC2)c2ncn([C@H]3C=C[C@@H](CO)C3)c2n1 [ABACAVIR] ?
Response: Active

Query: Do the same for C[C@H](Cn1cnc2c(N)ncnc21)OCP(=O)(O)O [TENOFOVIR ANHYDROUS] please
Response: Active

* * *

experimentalSystem: ATP-binding cassette sub-family C member 2 (Homo sapiens)
Sequence (Q92887 whole entry): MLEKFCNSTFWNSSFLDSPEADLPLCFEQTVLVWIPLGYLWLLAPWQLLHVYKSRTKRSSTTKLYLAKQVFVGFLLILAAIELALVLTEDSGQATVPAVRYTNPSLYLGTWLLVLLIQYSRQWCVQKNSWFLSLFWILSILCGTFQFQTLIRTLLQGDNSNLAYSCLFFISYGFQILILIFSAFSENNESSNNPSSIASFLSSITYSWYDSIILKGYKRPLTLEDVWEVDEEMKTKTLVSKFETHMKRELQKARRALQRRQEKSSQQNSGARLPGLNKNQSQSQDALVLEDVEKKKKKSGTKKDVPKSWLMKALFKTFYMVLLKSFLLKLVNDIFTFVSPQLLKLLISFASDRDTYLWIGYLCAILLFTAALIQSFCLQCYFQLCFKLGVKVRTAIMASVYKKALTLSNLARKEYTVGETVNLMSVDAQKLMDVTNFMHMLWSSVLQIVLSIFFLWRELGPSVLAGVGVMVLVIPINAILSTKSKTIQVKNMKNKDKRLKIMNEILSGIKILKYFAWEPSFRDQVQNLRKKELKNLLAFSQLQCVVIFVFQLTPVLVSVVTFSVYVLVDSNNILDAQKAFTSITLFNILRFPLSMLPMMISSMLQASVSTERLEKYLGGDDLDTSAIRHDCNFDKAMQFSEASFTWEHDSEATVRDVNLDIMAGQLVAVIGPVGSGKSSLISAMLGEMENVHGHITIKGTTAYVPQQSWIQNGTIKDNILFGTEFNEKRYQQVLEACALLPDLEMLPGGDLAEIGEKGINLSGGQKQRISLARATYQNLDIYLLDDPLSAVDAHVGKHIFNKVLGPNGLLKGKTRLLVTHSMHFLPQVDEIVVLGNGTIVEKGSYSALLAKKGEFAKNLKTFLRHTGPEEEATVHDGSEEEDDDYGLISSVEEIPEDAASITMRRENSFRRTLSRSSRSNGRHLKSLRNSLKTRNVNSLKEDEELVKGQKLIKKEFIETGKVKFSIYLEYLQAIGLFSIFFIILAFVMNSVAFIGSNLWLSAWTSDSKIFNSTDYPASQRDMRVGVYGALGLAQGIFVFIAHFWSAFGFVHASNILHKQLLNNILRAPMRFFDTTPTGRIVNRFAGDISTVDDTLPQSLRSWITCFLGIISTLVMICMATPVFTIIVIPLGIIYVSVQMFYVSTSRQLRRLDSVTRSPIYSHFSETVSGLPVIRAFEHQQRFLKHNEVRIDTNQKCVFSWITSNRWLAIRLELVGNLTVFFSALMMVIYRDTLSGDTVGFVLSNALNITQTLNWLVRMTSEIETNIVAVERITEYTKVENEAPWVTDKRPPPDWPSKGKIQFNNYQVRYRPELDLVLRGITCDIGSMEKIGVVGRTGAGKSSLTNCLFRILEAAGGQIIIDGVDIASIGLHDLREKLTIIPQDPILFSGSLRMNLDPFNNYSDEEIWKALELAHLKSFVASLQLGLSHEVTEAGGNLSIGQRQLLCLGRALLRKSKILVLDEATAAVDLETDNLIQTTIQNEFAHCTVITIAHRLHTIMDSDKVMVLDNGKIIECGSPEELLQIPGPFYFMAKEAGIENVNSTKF
procedureSummary: Inhibition of human MRP2 expressed in MDCK2 cells assessed as increase in intracellular CMF fluorescence by CMFDA assay
Assay type: cell-based
conditionSummary: mdck-ii
measuredEndpoint: Activity

# molecule, experimentalSystem, Activity
data = [
    ("Nc1nc(NC2CC2)c2ncn([C@H]3C=C[C@@H](CO)C3)c2n1", "ATP-binding cassette sub-family C member 2 (Homo sapiens)", "Dose-dependent effect"),
    ("O=C1Nc2ccc(Cl)cc2[C@@](C#CC2CC2)(C(F)(F)F)O1", "ATP-binding cassette sub-family C member 2 (Homo sapiens)", "Dose-dependent effect"),
    ("Cc1ccnc2c1NC(=O)c1cccnc1N2C1CC1", "ATP-binding cassette sub-family C member 2 (Homo sapiens)", "Dose-dependent effect"),
    ("Nc1ccn([C@@H]2CS[C@H](CO)O2)c(=O)n1", "ATP-binding cassette sub-family C member 2 (Homo sapiens)", "Dose-dependent effect"),
    ("CC(C)Nc1cccnc1N1CCN(C(=O)c2cc3cc(NS(C)(=O)=O)ccc3[nH]2)CC1", "ATP-binding cassette sub-family C member 2 (Homo sapiens)", "Dose-dependent effect"),
    ("C[C@H](Cn1cnc2c(N)ncnc21)OCP(=O)(O)O [TENOFOVIR ANHYDROUS]", "ATP-binding cassette sub-family C member 2 (Homo sapiens)", "Dose-dependent effect"),
]

// next entry
Query: Can you look up Activity on ATP-binding cassette sub-family C member 2 (Homo sapiens) for Nc1nc(=O)n([C@@H]2CS[C@H](CO)O2)cc1F ?
Response: Dose-dependent effect

Ref: ChEMBL document CHEMBL1147049
